Experiment: NCI Yeast Anticancer Drug Screen. Data for the cln2 rad14 strain (AID 165);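 further: 0% = growth equal to vehicle treated cultures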
Settings: S. cerevisiae cln2 rad14 strain, at 50.0 µM, hits give high values
About 79,000 compounds went through this panel and 15% of them were active in at least one assay; those are over-represented in the sample as a whole.
Known growth inhibition of a selection of compounds
PROPERTY_LABEL: growth inhibition (%)

COMPOUND: Cc1ccc(NC(=O)CCC(=O)C2CC(=O)CCC2=O)cc1C (configuration not stated)
RECORDED_MEASUREMENT: 5.75

COMPOUND: COc1ccc2nc(N/N=C/C(C)=N/Nc3cc(C)c4cc(OC)ccc4n3)cc(C)c2c1
RECORDED_MEASUREMENT: 3.4

COMPOUND: Cc1cccc(Cl)c1NC(=O)c1cccc([N+](=O)[O-])c1
RECORDED_MEASUREMENT: -7.95

COMPOUND: CC(C)COC(=O)c1ccc(NC(=O)CN2CC(C)OC(C)C2)cc1 (configuration not stated)
RECORDED_MEASUREMENT: 56.5

COMPOUND: CCOC(=O)CCC(C(=O)c1cccnc1)c1ccccn1 (configuration not stated)
RECORDED_MEASUREMENT: -52.9

COMPOUND: c1ccc(Oc2ccccc2-c2ccccc2)cc1
RECORDED_MEASUREMENT: -0.65

COMPOUND: S=C1NCCN1c1ccc(Cl)cc1
RECORDED_MEASUREMENT: -21.8

COMPOUND: O=C1CC(=O)C(C(=O)c2ccccc2)N1 (configuration not stated)
RECORDED_MEASUREMENT: 1.8

COMPOUND: COC(=O)C1(CC(=O)c2cccs2)NC(=S)NC(=O)C1C#N (configuration not stated)
RECORDED_MEASUREMENT: -3.35

COMPOUND: CC(/C=C1\N=C(c2ccccc2)OC1=O)=C\c1ccccc1
RECORDED_MEASUREMENT: 9.2

COMPOUND: CCCCCCC(O)C/C=C/CCCCCC/C(C(=O)OC)=C(/O)C(=O)OCC (configuration not stated)
RECORDED_MEASUREMENT: -27.6

COMPOUND: O=C1OC(=O)C2C3C=CC(CC3)C12 (configuration not stated)
RECORDED_MEASUREMENT: -65

* * *

growth inhibition: recorded values
Assay: NCI Yeast Anticancer Drug Screen. Data for the mec2-1 strain (AID 157)
Conditions: S. cerevisiae mec2-1 strain, at 50.0 µM, hits give high values
This is part of a sample that, as a whole, favours compounds with a hit. Of some 79,000 tested, about 15% had one in any assay. Where a SMILES comes first, the peptide text is derived from it. The star is where a group is joined. Cbz = O=C(OCc1ccccc1)*

COMPOUND: CCOC(=O)CCC(NC(=O)OCc1ccccc1)C(=O)NC(CCC(=O)OCC)C(=O)OCC (stereo not given) (Cbz-Glu(OEt)-Glu(OEt)-OEt; configuration not given here)
growth inhibition / %: 3.15

COMPOUND: Nc1[nH]c(=S)[nH]c(=O)c1NS(=O)(=O)c1cccc([N+](=O)[O-])c1
growth inhibition / %: -10

COMPOUND: O=C(NC12OC3CC(CC(C3)O1)O2)NC12OC3CC(CC(C3)O1)O2
growth inhibition / %: 0.35

COMPOUND: CCOC(=O)c1cn(CC)c2ccc3ccsc3c2c1=O
growth inhibition / %: -40.4

COMPOUND: O=c1ccc2ccc(OP(=O)(O)O)cc2o1
growth inhibition / %: -15.1

COMPOUND: CCN(CC)CCSc1cc(C)c2ccc(N)nc2n1
growth inhibition / %: -24

COMPOUND: O=C1C(CO)=C[C@H](O)[C@H]2O[C@@H]12
growth inhibition / %: 0.3

COMPOUND: CC(C)(C)OC(=O)NC1CC=CCC1NC(=O)OC(C)(C)C (stereo not given)
growth inhibition / %: -11.6

COMPOUND: CC(=O)CC(C)=NCCN=C(C)CC(C)=O.[Cu]
growth inhibition / %: 64.2

COMPOUND: CCN(CC)CCOB(c1cccc2ccccc12)c1cccc2ccccc12
growth inhibition / %: 24.4

* * *

Assay: NCI Yeast Anticancer Drug Screen. Data for the mlh1 rad18 strain (AID 175)
Conditions: S. cerevisiae mlh1 rad18 strain growth inhibition; at 50.0 µM; hits give high values
About 79,000 compounds went through this panel and 15% of them were active in at least one assay; those are over-represented in the sample as a whole.
PROPERTY_LABEL: growth inhibition (%)

MOLECULE: CS1(C)=NC(=O)c2cc([N+](=O)[O-])ccc2N=1
QUANTITY_UNIT: %
RECORDED_MEASUREMENT: 12.8
//
MOLECULE: CCCC(NC(C)=O)C(=O)O (configuration not stated)
QUANTITY_UNIT: %
RECORDED_MEASUREMENT: 8
//
MOLECULE: COC(=O)CC1(O)C(C=C(C)C)C(C(=O)OC)C(=O)C(C(=O)OC)C1C(=O)OC (configuration not stated)
QUANTITY_UNIT: %
RECORDED_MEASUREMENT: -1.25
//
MOLECULE: CCOC(=O)c1cnc2n(c1=O)[C@H]1CCCC[C@@H]1N2
QUANTITY_UNIT: %
RECORDED_MEASUREMENT: 5.65
//
MOLECULE: CCCCN(CCO)CC(O)Cn1cnc2c(N)ncnc21 (configuration not stated)
QUANTITY_UNIT: %
RECORDED_MEASUREMENT: 21.3
//
MOLECULE: Cc1ccc(/C=C/C(=N/NC(=O)c2ccccc2)C(C)CN(C)C)cc1 (configuration not stated)
QUANTITY_UNIT: %
RECORDED_MEASUREMENT: 12.9
//
MOLECULE: CCN(CC)C(=S)SCCCS(=O)(=O)O
QUANTITY_UNIT: %
RECORDED_MEASUREMENT: 8.75
//
MOLECULE: C=C(C)CC(O)CCCCC (configuration not stated)
QUANTITY_UNIT: %
RECORDED_MEASUREMENT: -13.3
//
MOLECULE: NNC(=O)CCCCCCO
QUANTITY_UNIT: %
RECORDED_MEASUREMENT: 7.45
//
MOLECULE: COC(=O)C1C2CC3C1C3C2C(=O)OC (configuration not stated)
QUANTITY_UNIT: %
RECORDED_MEASUREMENT: -18.6
//
MOLECULE: c1ccc(-c2nnc3nn4c(-c5ccccc5)cnnc4c3c2-c2ccccc2)cc1
QUANTITY_UNIT: %
RECORDED_MEASUREMENT: 1.5
//
MOLECULE: O=C1C2=C(Nc3cc([N+](=O)[O-])ccc3N2)OC1c1ccc2c(c1)OCO2 (configuration not stated)
QUANTITY_UNIT: %
RECORDED_MEASUREMENT: -5.45

* * *

Test: NCI Yeast Anticancer Drug Screen. Data for the bub3 strain (AID 167)
Conditions: S. cerevisiae bub3 mutant strain, at 50.0 µM, hits give high values
This is part of a sample that, as a whole, favours compounds with a hit. Of some 79,000 tested, about 15% had one in any assay.
Each entry below carries its recorded growth inhibition.

COMPOUND: Cc1ccc(S(=O)(=O)NC(=O)C2(Br)S(=O)(=O)OCCOS2(=O)=O)cc1
growth inhibition [%]: 24.6
--
COMPOUND: Oc1cc(OCCCc2ccc(F)cc2)cc2ccc3ccccc3c12
growth inhibition [%]: 54
--
COMPOUND: Cc1ccc(-c2c3c(n(C4OC(CO)C(O)C(O)C4O)c(=S)c2C#N)CC(C)(C)CC3=O)cc1 (centres undefined)
growth inhibition [%]: 9.15
--
COMPOUND: CN1CCC(O)(/C=C\C2(O)CCN(C)CC2)CC1
growth inhibition [%]: 3.65
--
COMPOUND: C=CC1CNCCC1CC(=O)OCC (centres undefined)
growth inhibition [%]: 4.45
--
COMPOUND: O=[N+]([O-])c1ccc(N=N/C(=N\Nc2ccccc2)c2nc3ccccc3[nH]2)c([N+](=O)[O-])c1
growth inhibition [%]: -4.35
--
COMPOUND: Cc1cccnc1C
growth inhibition [%]: 14.4
--
COMPOUND: Nn1c(SSSSc2nnc(-c3ccccc3)n2N)nnc1-c1ccccc1
growth inhibition [%]: 14.6
--
COMPOUND: COC(=O)/C=C/c1ccccc1
growth inhibition [%]: -27.9
--
COMPOUND: O=C1OC(c2ccc(Cl)c3ccccc23)c2ccccc21 (centres undefined)
growth inhibition [%]: 12.8
--
COMPOUND: CC(SCCNC(N)=O)C(N)=O (centres undefined)
growth inhibition [%]: 7.25
--
COMPOUND: CCc1cnc(N)nc1N
growth inhibition [%]: 0.95
--
COMPOUND: O=C1CSC(c2cccnc2)N1CCN1C(=O)CSC1c1cccnc1 (centres undefined)
growth inhibition [%]: -1.6
--
COMPOUND: CC1CC(=O)Nc2ncnc(N)c21 (centres undefined)
growth inhibition [%]: 5.3
--
COMPOUND: N#CCCOCC(OCCC#N)C(OCCC#N)C(OCCC#N)C(COCCC#N)OCCC#N (centres undefined)
growth inhibition [%]: 6.8
--
COMPOUND: C[n+]1ccccc1/C=C/c1ccc2c(c1)OCO2
growth inhibition [%]: 29.9
--
COMPOUND: CCN1CCCC1CO (centres undefined)
growth inhibition [%]: -4.35
--
COMPOUND: CC(=O)Oc1ccc2c(c1)CC[C@@H]1C2[C@@H](O[N+](=O)[O-])C[C@@]2(C)C1CC[C@@H]2O[N+](=O)[O-] (some centres undefined)
growth inhibition [%]: 10.1
--
COMPOUND: O=C(NC1CCCCC1)N(C(=O)C(F)(F)F)C1CCCCC1
growth inhibition [%]: -2.4
--
COMPOUND: COC1OC(CO)C(OC(C)=O)C(OC(C)=O)C1OC(C)=O (centres undefined)
growth inhibition [%]: 12.6
--
COMPOUND: COC(=O)C1=C(C(=O)OC)C2C=CC1C1C(Cl)=C(Cl)C21 (centres undefined)
growth inhibition [%]: 33.6
--
COMPOUND: CC(C)(C)c1cc(-c2cc(C(C)(C)C)nc(N)n2)nc(N)n1
growth inhibition [%]: -35.3
--
COMPOUND: CCCCC(O)C(=O)NCCC(=O)c1ccccc1 (centres undefined)
growth inhibition [%]: 14.1
--
COMPOUND: Cc1cc(=O)c2ccccc2n1CCCCCCCCCCn1c(C)cc(=O)c2ccccc21
growth inhibition [%]: -26.6
